glycan array binding signal (z-score) for assorted binders
# testedOn: Fuc(a1-2)[GalNAc(a1-3)]Gal(b1-4)GlcNAc(b1-2)Man(a1-3)[Fuc(a1-2)[GalNAc(a1-3)]Gal(b1-4)GlcNAc(b1-2)Man(a1-6)]Man(b1-4)GlcNAc(b1-4)[Fuc(a1-6)]GlcNAc
# methodNotes: glycan array binding signal (z-score within array); higher = stronger binding
# measurementParameters: glycan notation: IUPAC condensed, linker removed
Shown is part of a subset that was picked to be rich in the strongest signals.
Note: the reply should be a number with no unit written.

INSERT INTO measurements (binder, property, measuredvalue) VALUES
  ('Mg3lysM (Mycosphaerella graminicola) (protein) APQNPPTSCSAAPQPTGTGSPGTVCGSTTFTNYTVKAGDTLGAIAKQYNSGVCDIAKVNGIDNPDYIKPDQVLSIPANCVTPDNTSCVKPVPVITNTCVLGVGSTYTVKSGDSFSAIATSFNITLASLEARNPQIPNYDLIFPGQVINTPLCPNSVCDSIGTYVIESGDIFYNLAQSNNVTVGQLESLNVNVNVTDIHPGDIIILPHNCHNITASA', 'glycan array binding signal (z-score)', 0.01);

Incoming: Give reported glycan array binding signal (z-score) value for Als3-41 (Candida albicans) (protein) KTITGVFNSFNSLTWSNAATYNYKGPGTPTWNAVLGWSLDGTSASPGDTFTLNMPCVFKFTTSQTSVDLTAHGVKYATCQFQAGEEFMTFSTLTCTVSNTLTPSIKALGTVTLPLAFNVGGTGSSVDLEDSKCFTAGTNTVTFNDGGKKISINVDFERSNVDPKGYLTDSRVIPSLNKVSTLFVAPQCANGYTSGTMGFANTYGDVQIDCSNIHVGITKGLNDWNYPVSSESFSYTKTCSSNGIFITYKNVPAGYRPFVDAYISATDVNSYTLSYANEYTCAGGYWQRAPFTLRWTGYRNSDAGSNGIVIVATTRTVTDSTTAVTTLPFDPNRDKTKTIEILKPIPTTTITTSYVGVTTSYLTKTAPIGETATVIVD
Outgoing: -0.001

Ref: the supplement of paper PMC8728848
